Molecular target: JAK1 (Homo sapiens (Human))
Sequence (P23458 whole entry): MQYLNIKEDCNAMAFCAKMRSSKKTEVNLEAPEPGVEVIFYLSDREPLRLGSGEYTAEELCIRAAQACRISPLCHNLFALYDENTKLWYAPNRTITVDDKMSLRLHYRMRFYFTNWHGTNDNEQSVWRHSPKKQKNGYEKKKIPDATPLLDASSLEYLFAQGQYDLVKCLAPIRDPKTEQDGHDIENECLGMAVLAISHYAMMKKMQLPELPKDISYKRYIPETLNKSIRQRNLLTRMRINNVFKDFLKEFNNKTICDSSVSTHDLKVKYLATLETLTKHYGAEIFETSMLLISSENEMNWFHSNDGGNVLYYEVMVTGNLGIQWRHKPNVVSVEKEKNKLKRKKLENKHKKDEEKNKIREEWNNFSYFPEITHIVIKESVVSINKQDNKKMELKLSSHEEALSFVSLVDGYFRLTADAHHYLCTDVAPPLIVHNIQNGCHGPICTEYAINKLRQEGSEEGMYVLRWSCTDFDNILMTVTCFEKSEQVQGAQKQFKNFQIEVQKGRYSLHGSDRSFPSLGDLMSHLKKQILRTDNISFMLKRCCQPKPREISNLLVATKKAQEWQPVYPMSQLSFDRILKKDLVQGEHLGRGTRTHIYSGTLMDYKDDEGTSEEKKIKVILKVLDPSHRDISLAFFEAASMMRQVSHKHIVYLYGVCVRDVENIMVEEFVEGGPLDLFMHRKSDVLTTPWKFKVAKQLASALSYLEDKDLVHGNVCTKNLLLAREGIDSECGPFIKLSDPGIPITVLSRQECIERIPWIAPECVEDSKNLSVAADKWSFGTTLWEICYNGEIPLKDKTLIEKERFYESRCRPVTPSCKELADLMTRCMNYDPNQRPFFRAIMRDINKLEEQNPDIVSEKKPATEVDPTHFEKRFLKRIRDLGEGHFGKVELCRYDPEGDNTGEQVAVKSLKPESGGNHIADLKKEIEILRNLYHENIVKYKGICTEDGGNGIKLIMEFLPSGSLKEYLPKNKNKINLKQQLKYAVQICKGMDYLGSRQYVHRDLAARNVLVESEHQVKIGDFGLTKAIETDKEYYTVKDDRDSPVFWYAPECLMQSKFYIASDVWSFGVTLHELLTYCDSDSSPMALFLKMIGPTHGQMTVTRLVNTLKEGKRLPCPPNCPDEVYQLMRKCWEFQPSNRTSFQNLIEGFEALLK
Assay: JAK enzymatic assay (peptide mobility shift), JAK1
Settings: recombinant JAK1 20 nM, IRS-1 peptide, 240 minutes
log10 IC50 for assorted molecules
readout_kind: log10 IC50 (log10 of the value in nM)

molecule="CN(c1ncnc2[nH]ccc12)[C@H]1CC[C@H](CS(=O)(=O)N2CC(O)C2)CC1 [Example 115]" target="JAK1 (Homo sapiens (Human))" readout_kind="log10 IC50" observed_measurement=1.03
molecule="CN(c1ncnc2[nH]ccc12)[C@H]1CC[C@H](CS(=O)(=O)N2CCC[C@H](C#N)C2)CC1 [Example 64]" target="JAK1 (Homo sapiens (Human))" readout_kind="log10 IC50" observed_measurement=0.43
molecule="CN(c1ncnc2[nH]ccc12)[C@H]1CC[C@H](CS(=O)(=O)N2CCN(c3ncccc3C(=O)NC3CC3)CC2)CC1 [Example 121]" target="JAK1 (Homo sapiens (Human))" readout_kind="log10 IC50" observed_measurement=1.02
molecule="CC(=O)C1CCCN(S(=O)(=O)C[C@H]2CC[C@H](N(C)c3ncnc4[nH]ccc34)CC2)C1 (some centres unmarked) [Example 5]" target="JAK1 (Homo sapiens (Human))" readout_kind="log10 IC50" observed_measurement=0.85
molecule="CCC1(NC(=O)OCc2ccccc2)CCCN(S(=O)(=O)C[C@H]2CC[C@H](N(C)c3ncnc4[nH]ccc34)CC2)C1 (some centres unmarked) [Example 4]" target="JAK1 (Homo sapiens (Human))" readout_kind="log10 IC50" observed_measurement=1.65
molecule="C[C@@H]1C[C@@H](CS(=O)(=O)N2CCC(CO)CC2)CC[C@@H]1N(C)c1ncnc2[nH]ccc12 [Example 130]" target="JAK1 (Homo sapiens (Human))" readout_kind="log10 IC50" observed_measurement=0.87
molecule="Cc1cc(CC[C@]2(O)CCN(S(=O)(=O)C[C@H]3CC[C@H](N(C)c4ncnc5[nH]ccc45)CC3)C2)on1 [Example 85]" target="JAK1 (Homo sapiens (Human))" readout_kind="log10 IC50" observed_measurement=1.02
molecule="COc1ccccc1CS(=O)(=O)[C@H]1CCN(S(=O)(=O)C[C@H]2CC[C@H](N(C)c3ncnc4[nH]ccc34)CC2)C1 [Example 89]" target="JAK1 (Homo sapiens (Human))" readout_kind="log10 IC50" observed_measurement=0.65
molecule="CN(c1ncnc2[nH]ccc12)[C@H]1CC[C@H](CS(=O)(=O)N2CC(c3cccnc3)C2)CC1 [Example 111]" target="JAK1 (Homo sapiens (Human))" readout_kind="log10 IC50" observed_measurement=1.36
molecule="CN(c1ncnc2[nH]ccc12)[C@H]1CC[C@H](CS(=O)(=O)N2CC[C@@H](F)C2)CC1 [Example 34]" target="JAK1 (Homo sapiens (Human))" readout_kind="log10 IC50" observed_measurement=0.87
molecule="CN(c1ncnc2[nH]ccc12)[C@H]1CC[C@H](CS(=O)(=O)N2CC[C@H](S(=O)(=O)Cc3ccccc3)C2)CC1 [Example 82]" target="JAK1 (Homo sapiens (Human))" readout_kind="log10 IC50" observed_measurement=0.87
molecule="CCC1(C(N)=O)CCN(S(=O)(=O)C[C@H]2CC[C@H](N(C)c3ncnc4[nH]ccc34)CC2)CC1 [Example 44]" target="JAK1 (Homo sapiens (Human))" readout_kind="log10 IC50" observed_measurement=0.90
molecule="CN(c1ncnc2[nH]ccc12)[C@H]1CC[C@H](CS(=O)(=O)N2CCC[C@H](CS(C)(=O)=O)C2)CC1 [Example 67]" target="JAK1 (Homo sapiens (Human))" readout_kind="log10 IC50" observed_measurement=1.31
molecule="CN(c1ncnc2[nH]ccc12)[C@H]1CC[C@H](CS(=O)(=O)N2CC[C@@](O)(c3ccccc3)C2)CC1 [Example 91]" target="JAK1 (Homo sapiens (Human))" readout_kind="log10 IC50" observed_measurement=0.28
molecule="CN(c1ncnc2[nH]ccc12)[C@H]1CC[C@H](CS(=O)(=O)N2CCC(N)CC2)CC1 [Example 11]" target="JAK1 (Homo sapiens (Human))" readout_kind="log10 IC50" observed_measurement=1.63
molecule="CN(c1ncnc2[nH]ccc12)[C@H]1CC[C@H](CS(=O)(=O)N2CC(c3ncccn3)C2)CC1 [Example 110]" target="JAK1 (Homo sapiens (Human))" readout_kind="log10 IC50" observed_measurement=1.21
molecule="CC1CN(S(=O)(=O)C[C@H]2CC[C@H](N(C)c3ncnc4[nH]ccc34)CC2)CCN1C (some centres unmarked) [Example 38]" target="JAK1 (Homo sapiens (Human))" readout_kind="log10 IC50" observed_measurement=1.06
molecule="CC[C@@]1(CO)CCN(S(=O)(=O)C[C@H]2CC[C@H](N(C)c3ncnc4[nH]ccc34)CC2)C1 [Example 74]" target="JAK1 (Homo sapiens (Human))" readout_kind="log10 IC50" observed_measurement=1.24
molecule="CNS(=O)(=O)[C@H]1CCN(S(=O)(=O)C[C@H]2CC[C@H](N(C)c3ncnc4[nH]ccc34)CC2)C1 [Example 81]" target="JAK1 (Homo sapiens (Human))" readout_kind="log10 IC50" observed_measurement=0.44
molecule="CN1CCN(S(=O)(=O)C[C@H]2CC[C@H](N(C)c3ncnc4[nH]ccc34)CC2)CC1 [Example 136]" target="JAK1 (Homo sapiens (Human))" readout_kind="log10 IC50" observed_measurement=-1.61
molecule="CO[C@@H]1CCCN(S(=O)(=O)C[C@H]2CC[C@H](N(C)c3ncnc4[nH]ccc34)CC2)C1 [Example 60]" target="JAK1 (Homo sapiens (Human))" readout_kind="log10 IC50" observed_measurement=0.23
molecule="CCN(CC)C(=O)C1CCN(S(=O)(=O)C[C@H]2CC[C@H](N(C)c3ncnc4[nH]ccc34)CC2)CC1 [Example 52]" target="JAK1 (Homo sapiens (Human))" readout_kind="log10 IC50" observed_measurement=1.35
molecule="CN(c1ncnc2[nH]ccc12)[C@H]1CC[C@H](CS(=O)(=O)N2CCC(C)(O)CC2)CC1 [Example 23]" target="JAK1 (Homo sapiens (Human))" readout_kind="log10 IC50" observed_measurement=0.89
molecule="CN(c1ncnc2[nH]ccc12)[C@H]1CC[C@H](CS(=O)(=O)N2CC(S(=O)(=O)c3ccccc3)C2)CC1 [Example 114]" target="JAK1 (Homo sapiens (Human))" readout_kind="log10 IC50" observed_measurement=0.48
molecule="CN(c1ncnc2[nH]ccc12)[C@H]1CC[C@H](CS(=O)(=O)N2CCCC(F)C2)CC1 (some centres unmarked) [Example 10]" target="JAK1 (Homo sapiens (Human))" readout_kind="log10 IC50" observed_measurement=0.72
molecule="CN(c1ncnc2[nH]ccc12)[C@H]1CC[C@H](CS(=O)(=O)N2CC[C@H](Cc3cnccn3)C2)CC1 [Example 102]" target="JAK1 (Homo sapiens (Human))" readout_kind="log10 IC50" observed_measurement=1.30
molecule="CN(c1ncnc2[nH]ccc12)[C@H]1CC[C@@H](CS(=O)(=O)N2CCC[C@H](C#N)C2)CC1 [Example 39]" target="JAK1 (Homo sapiens (Human))" readout_kind="log10 IC50" observed_measurement=1.37
molecule="COC(=O)NC1CN(S(=O)(=O)C[C@H]2CC[C@H](N(C)c3ncnc4[nH]ccc34)CC2)C1 [Example 117]" target="JAK1 (Homo sapiens (Human))" readout_kind="log10 IC50" observed_measurement=1.04
molecule="CN(c1ncnc2[nH]ccc12)[C@H]1CC[C@H](CS(=O)(=O)N2CC[C@H](F)C2)CC1 [Example 70]" target="JAK1 (Homo sapiens (Human))" readout_kind="log10 IC50" observed_measurement=1.32
